test.system: p110δ/p85α (Homo sapiens (Human), UniProt O00329)
Sequence (O00329 whole entry): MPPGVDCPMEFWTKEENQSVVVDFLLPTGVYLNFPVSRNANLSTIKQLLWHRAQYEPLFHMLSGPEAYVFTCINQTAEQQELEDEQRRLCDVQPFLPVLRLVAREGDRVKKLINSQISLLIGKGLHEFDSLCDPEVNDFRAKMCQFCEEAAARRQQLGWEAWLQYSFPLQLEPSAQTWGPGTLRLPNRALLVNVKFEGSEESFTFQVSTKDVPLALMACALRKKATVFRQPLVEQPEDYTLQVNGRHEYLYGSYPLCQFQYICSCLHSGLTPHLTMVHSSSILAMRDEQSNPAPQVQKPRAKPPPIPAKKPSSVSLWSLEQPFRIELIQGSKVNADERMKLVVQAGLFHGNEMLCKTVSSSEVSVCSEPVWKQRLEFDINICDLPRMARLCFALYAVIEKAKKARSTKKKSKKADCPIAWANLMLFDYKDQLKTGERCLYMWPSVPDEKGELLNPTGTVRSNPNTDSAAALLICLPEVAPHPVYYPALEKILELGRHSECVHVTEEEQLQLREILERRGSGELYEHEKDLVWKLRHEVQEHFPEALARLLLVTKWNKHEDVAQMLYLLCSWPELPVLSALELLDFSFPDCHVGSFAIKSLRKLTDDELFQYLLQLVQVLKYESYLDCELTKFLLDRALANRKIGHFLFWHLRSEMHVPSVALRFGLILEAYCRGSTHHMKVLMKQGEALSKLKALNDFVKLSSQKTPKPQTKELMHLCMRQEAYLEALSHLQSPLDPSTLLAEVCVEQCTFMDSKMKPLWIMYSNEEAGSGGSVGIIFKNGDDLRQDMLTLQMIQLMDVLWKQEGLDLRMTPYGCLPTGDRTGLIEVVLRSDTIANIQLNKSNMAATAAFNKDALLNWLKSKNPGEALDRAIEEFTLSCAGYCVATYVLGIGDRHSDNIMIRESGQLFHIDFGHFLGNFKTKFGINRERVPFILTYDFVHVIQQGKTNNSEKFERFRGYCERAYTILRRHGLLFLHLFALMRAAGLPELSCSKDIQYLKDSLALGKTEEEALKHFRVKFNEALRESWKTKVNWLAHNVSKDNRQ
Sequence (P27986 whole entry partner): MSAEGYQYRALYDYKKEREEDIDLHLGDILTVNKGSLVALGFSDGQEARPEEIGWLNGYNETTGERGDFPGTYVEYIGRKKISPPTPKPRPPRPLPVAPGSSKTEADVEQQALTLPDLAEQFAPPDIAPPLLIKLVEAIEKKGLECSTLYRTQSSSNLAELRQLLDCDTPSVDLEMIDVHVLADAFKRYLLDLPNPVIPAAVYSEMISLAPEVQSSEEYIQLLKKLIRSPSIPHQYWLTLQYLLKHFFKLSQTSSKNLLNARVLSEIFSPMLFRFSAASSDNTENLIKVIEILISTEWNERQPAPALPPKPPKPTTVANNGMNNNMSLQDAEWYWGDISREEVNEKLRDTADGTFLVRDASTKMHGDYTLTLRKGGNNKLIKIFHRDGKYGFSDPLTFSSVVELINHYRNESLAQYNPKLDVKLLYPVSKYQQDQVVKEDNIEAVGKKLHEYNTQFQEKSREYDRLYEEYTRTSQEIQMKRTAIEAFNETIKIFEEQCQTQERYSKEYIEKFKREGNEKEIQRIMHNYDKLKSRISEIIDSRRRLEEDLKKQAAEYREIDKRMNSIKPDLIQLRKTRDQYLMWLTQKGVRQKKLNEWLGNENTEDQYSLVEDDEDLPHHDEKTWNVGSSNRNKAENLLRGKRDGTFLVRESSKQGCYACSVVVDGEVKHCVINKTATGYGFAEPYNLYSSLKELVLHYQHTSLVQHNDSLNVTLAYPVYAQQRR
assay.remarks: PI3K δ inhibition assay (TLC lipid kinase or HTRF)
measurement.label: IC50

// solved cases for IC50 follow
CC(c1cc2ccccc2nc1-c1ccccc1)n1nc(C#C[C@@H](C)O)c2c(N)ncnc21 (stereo partly shown) [Compound 71] | < 100 nM
Nc1ncnc2c1c(-c1cc(O)cc(F)c1)nn2CCn1c(-c2ccccc2)nc2ccccc21 [Compound 126] | > 1000 nM
CC(C)c1ccccc1-c1nc2ccccc2cc1Cn1nc(-c2cc(O)cc(F)c2)c2c(N)ncnc21 [Compound 17] | < 100 nM
Nc1ncnc2c1c(-c1cccc(O)c1)nn2Cc1cc2ccccc2nc1N1CCOCC1 [Compound 64] | < 100 nM
Nc1ncnc2c1c(-c1cc(O)cc(F)c1)nn2Cc1cc2ccccc2nc1Cl [Compound 54] | < 100 nM

Task: Return reported IC50; argument: CN(C)c1ncccc1Cn1nc(-c2cc(O)cc(F)c2)c2c(N)ncnc21 [Compound 125]
Output: > 1000 nM

Task: Nc1ncnc2c1c(-c1cc(O)cc(F)c1)nn2Cc1cc2ccccc2nc1N1CCCC1 [Compound 2] ?
Output: < 100 nM

Task: CC(=O)Nc1nc2ccc(-c3nn(Cc4cc5ccccc5nc4CCN4CCCC4)c4ncnc(N)c34)cc2s1 [Compound 166] ?
Output: < 100 nM

Task: CCc1nc2ccccc2cc1Cn1nc(-c2ccc3nc(NC(C)=O)sc3c2)c2c(N)ncnc21 [Compound 98] ?
Output: < 100 nM

Task: CC(=O)Nc1nc2ccc(-c3nn(Cc4cc5ccccc5nc4N4CCCC4C)c4ncnc(N)c34)cc2s1 (stereo not shown) [Compound 186] ?
Output: < 100 nM

Task: Nc1ncnc2ccc(-c3nn(Cc4cc5ccccc5nc4-c4ccccc4F)c4ncnc(N)c34)cc12 [Compound 138] ?
Output: < 100 nM

Task: Nc1ncc2cc(-c3nn(Cc4cc5ccccc5nc4-c4ccccc4)c4ncnc(N)c34)ccc2n1 [Compound 143] ?
Output: < 100 nM

Task: Nc1ncnc2c1c(-c1cccc(O)c1)nn2Cc1cc2ccccc2nc1-c1ccccc1C(F)(F)F [Compound 46] ?
Output: < 100 nM

Task: Cc1ccncc1-c1nc2ccccc2cc1Cn1nc(-c2cc(O)cc(F)c2)c2c(N)ncnc21 [Compound 56] ?
Output: < 100 nM

Task: Nc1ccc2cc(-c3nn(Cc4cc5ccccc5nc4N4CCOCC4)c4ncnc(N)c34)ccc2n1 [Compound 140] ?
Output: < 100 nM

Task: CC1CCCN1c1nc2ccccc2cc1Cn1ncc2c(N)ncnc21 (stereo not shown) [Compound 188] ?
Output: > 1000 nM
